experiment: stimulators of insulin release from INS-1E, primary screen, cell-based, 5 mM glucose, NPC library (AID 1117329); details: rat INS-1E insulin secretion, at 10 µM, stronger effect = higher value
Hi there, I'd appreciate the recorded insulin secretion stimulation for every entry that follows.
Answers are plain numbers, in %.

CC(=O)Oc1c(C)c(C)c2c(c1C)CC[C@@](C)(CCC[C@H](C)CCC[C@H](C)CCCC(C)C)O2; 0.3
CC(C)N=C(N)/N=C(\N)Nc1ccc(Cl)cc1; -3.1
Cc1ccsc1/C=C/C1=NCCCN1C; 0.2
CCN(CC)C(C)CN1c2ccccc2Sc2ccccc21 (centres undefined); 7.3

// for each compound below, give its insulin secretion stimulation
1. Cc1cc(C(C)(C)C)cc(C)c1CC1=NCCN1
2. CN1CCOC(c2ccccc2)c2ccccc2C1 (centres undefined)
3. Cc1ccc(S(=O)(=O)NC(=O)NN2CC3CCCC3C2)cc1 (centres undefined)
4. Cc1c(Nc2ncccc2C(=O)O)cccc1C(F)(F)F
5. NC(N)=Nc1nc(CSCC/C(N)=N/S(N)(=O)=O)cs1

Data returned:
0.2
1.8
42.6
-1.5
2.8

// for each compound below, give its insulin secretion stimulation
1. C[C@@H]1C[C@H]2[C@@H]3C[C@H](F)C4=CC(=O)C(Cl)=C[C@]4(C)[C@@]3(F)[C@@H](O)C[C@]2(C)[C@@]1(O)C(=O)CO
2. Cc1cc2cc3c(C)cc(=O)oc3c(C)c2o1
3. CCC(=O)c1c(O)cc(O)cc1O
4. Cc1c(N(C)C)c(=O)n(-c2ccccc2)n1C

Data returned:
1. -0.6
2. -0.7
3. 3.7
4. 0.4

* * *

experiment: drug combination growth inhibition, ovarian cancer – cell-based, oncology-focused library, rucaparib conditional, profiling panel (AID 1508598); settings: patient-derived ovarian cancer cells, CellTiter-Glo viability, 144 h; at 0.0195 µM; OCI-P5x cells; without rucaparib; stronger effect = lower value
The source made the active and inactive calls.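 Rule for the calls: active = normalized viability below 100% at a tested concentration; inactive = the rest.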
measurementKind: viability

A selection of reference data follows.
CC(C)(C#N)c1cc(Cn2cncn2)cc(C(C)(C)C#N)c1; 104% (inactive)
CCc1c2c(nc3ccc(OC(=O)N4CCC(N5CCCCC5)CC4)cc13)-c1cc3c(c(=O)n1C2)COC(=O)[C@]3(O)CC; 105% (inactive)
O=c1c(O)c(-c2ccc(O)c(O)c2)oc2cc(O)cc(O)c12; 105% (inactive)

// for each compound below, give its viability
1. O=NN(CCCl)C(=O)NC1CCCCC1
2. CC(c1cc2ccccc2s1)N(O)C(N)=O (centres undefined)
3. COC(=O)Nc1nc2ccc(C(=O)c3cccs3)cc2[nH]1
4. Cc1nc(-c2ccc(OCC(C)C)c(C#N)c2)sc1C(=O)O

Data returned:
116% (inactive)
63.9% (active)
32.7% (active)
104% (inactive)

// for each compound below, give its viability
1. COc1cc2c(N3CCN(C(=O)Nc4ccc(OC(C)C)cc4)CC3)ncnc2cc1OCCCN1CCCCC1
2. CC[C@@]1(O)C(=O)OCc2c1cc1n(c2=O)Cc2cc3c(CN(C)C)c(O)ccc3nc2-1

Data returned:
["92.4% (active)", "31.5% (active)"]

* * *

Hi there, I'd appreciate the recorded aggregation suppression score for every entry that follows.
assay: 75Q-TubH aggregate inhibition, S. cerevisiae, yeast (AID 1616); settings: S. cerevisiae 75Q-TubH polyglutamine aggregation suppression; stronger effect = higher value
One number for each entry.

NC[C@H](O)c1ccc(O)c(O)c1; 1.39
CC(=O)Nc1ccc(O)cc1; 1.73
Cn1c(=O)c2c(ncn2CC(O)CO)n(C)c1=O (configuration not stated); 1.31
COCCc1ccc(OCC(O)CNC(C)C)cc1 (configuration not stated); 0.579
CN1Cc2c(N)cccc2C(c2ccccc2)C1 (configuration not stated); 1.65
CCCCN(CCCC)CCCOC(=O)c1ccc(N)cc1; 1.28

Next item in the queue.
Kindly note the recorded aggregation suppression score for "O=c1c(O)c(-c2ccc(O)c(O)c2)oc2cc(O)cc(O)c12" , which is 1.03
